# assayed.target: KRAS G13D binding to BRAF RBD (Homo sapiens (Human), UniProt P01116+P62937, G13D)
# Sequence (P01116 other isoform, or with tags, fused parts or gaps G13D, one chain of several): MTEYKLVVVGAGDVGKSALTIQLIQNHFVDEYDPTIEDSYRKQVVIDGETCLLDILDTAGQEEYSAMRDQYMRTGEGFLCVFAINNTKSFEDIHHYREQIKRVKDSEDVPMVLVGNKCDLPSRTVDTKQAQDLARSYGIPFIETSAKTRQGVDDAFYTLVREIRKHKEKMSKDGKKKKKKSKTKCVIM
# experiment: Ras-Raf disruption/FRET/MOA assay, KRAS G13D
pIC50: −log10 of the molar value.
Measured pIC50, listed per entry for reference.

| compound | assayed.target | pIC50 |
| --- | --- | --- |
| C=CC(=O)N1CC[C@H](C(=O)C2CC[C@H](C)[C@H]2C(=O)N[C@H]2Cc3cccc(c3)-c3ccc4c(c3)c(c(-c3cccnc3[C@H](C)OC)n4CC)CC(C)(C)COC(=O)[C@@H]3CCCN(N3)C2=O)C1 (stereo partly shown) [Compound A494] | KRAS G13D binding to BRAF RBD (Homo sapiens (Human), UniProt P01116+P62937, G13D) | < 5.00 |
| CC#CC(=O)N1CC[C@]2(CCN([C@H](C(=O)N[C@H]3Cc4cccc(c4)-c4ccc5c(c4)c(c(-c4cccnc4[C@H](C)OC)n5CC)CC(C)(C)COC(=O)[C@@H]4CCCN(N4)C3=O)C(C)C)C2=O)C1 (single isomer, unassigned) [Compound A426] | KRAS G13D binding to BRAF RBD (Homo sapiens (Human), UniProt P01116+P62937, G13D) | < 5.00 |
| CCn1c(-c2cccnc2[C@H](C)OC)c2c3cc(ccc31)-c1cccc(c1)C[C@H](NC(=O)[C@H](C(C)C)N1CC[C@@]3(CCN(C(=O)C#CC(C)(C)N4CCC4)C3)C1=O)C(=O)N1CCC[C@H](N1)C(=O)OCC(C)(C)C2 (atropisomer, axis not shown) [Compound A733] | KRAS G13D binding to BRAF RBD (Homo sapiens (Human), UniProt P01116+P62937, G13D) | < 5.00 |
| CCn1c(-c2cccnc2[C@H](C)OC)c2c3cc(ccc31)-c1cccc(c1)C[C@H](NC(=O)[C@H](C(C)C)N1CC[C@]3(CCN(C(=O)C#CC(C)(C)N4CCC4)C3)C1=O)C(=O)N1CCC[C@H](N1)C(=O)OCC(C)(C)C2 [Compound A365] | KRAS G13D binding to BRAF RBD (Homo sapiens (Human), UniProt P01116+P62937, G13D) | 5.00 to 6.00 |

====

IC50 reference
# assayed.target: KRAS G12C (Homo sapiens (Human), UniProt P01116+P62937, G12C)
# Sequence (P01116-2 other isoform, or with tags, fused parts or gaps G12C): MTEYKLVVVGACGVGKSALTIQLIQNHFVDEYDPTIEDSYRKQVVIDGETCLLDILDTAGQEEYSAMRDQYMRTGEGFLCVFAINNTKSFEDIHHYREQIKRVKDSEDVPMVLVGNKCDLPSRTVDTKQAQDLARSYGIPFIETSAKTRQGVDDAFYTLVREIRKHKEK
# Sequence (P62937 whole entry): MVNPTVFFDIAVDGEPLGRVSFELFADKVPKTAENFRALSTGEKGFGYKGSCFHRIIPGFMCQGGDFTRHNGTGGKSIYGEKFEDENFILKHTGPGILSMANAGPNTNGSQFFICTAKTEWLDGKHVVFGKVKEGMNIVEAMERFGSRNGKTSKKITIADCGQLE
# experiment: Ras-Raf disruption/FRET/MOA assay, KRAS G12C
# Type: biochemical
# particulars: read-out: KRAS G12C FRET data IC50

| compound.structure.string | IC50 |
| --- | --- |
| CCn1c(-c2cnccc2COC)c2c3cc(ccc31)-c1cc(O)cc(c1)C[C@H](NC(=O)[C@H](C(C)C)N(C)C(=O)CCNC1=NCCO1)C(=O)N1CCC[C@H](N1)C(=O)OCC(C)(C)C2 | 100 to 1000 nM |
| CCn1c(-c2cnccc2COC)c2c3cc(ccc31)-c1cc(O)cc(c1)C[C@H](NC(=O)[C@H](C(C)C)N(C)C(=O)C1CCN(C(=O)[C@H]3CN3)CC1)C(=O)N1CCC[C@H](N1)C(=O)OCC(C)(C)C2 | 10 to 100 nM |
| CCn1c(-c2cnccc2COC)c2c3cc(ccc31)-c1cccc(c1)C[C@H](NC(=O)[C@H](C(C)C)N(C)C(=O)CCN=C=Nc1ccc(N(C)C)cc1)C(=O)N1CCC[C@H](N1)C(=O)OCC(C)(C)C2 | 100 to 1000 nM |
| CCn1c(-c2cnccc2COC)c2c3cc(ccc31)-c1cc(O)cc(c1)C[C@H](NC(=O)[C@H](C(C)C)N(C)C(=O)CCN(C)C(=O)[C@@H]1CN1)C(=O)N1CCC[C@H](N1)C(=O)OCC(C)(C)C2 | 100 to 1000 nM |
| CCn1c(-c2cnccc2COC)c2c3cc(ccc31)-c1cc(O)cc(c1)C[C@H](NC(=O)[C@@H](CN(C)C(=O)[C@H]1CN1)C(C)C)C(=O)N1CCC[C@H](N1)C(=O)OCC(C)(C)C2 | 1000 to 10000 nM |
